# run-description: Influencing factors stability test (light exposure, high temperature, high humidity)
# Type: physicochemical
# condition-notes: solid storage, 92.5% RH, 5 days; read-out: Purity%
endpoint-label: remaining at 120 h (%)

compound="FC1(F)Oc2ccc(Nc3ccc4cccc(Cl)c4n3)cc2O1 [crystal form A]" endpoint_label="remaining at 120 h" value=100

====

# run-description: Influencing factors stability test (light exposure, high temperature, high humidity)
# Format: physicochemical
# condition-notes: solid storage, 92.5% RH, 30 days; read-out: Purity%
endpoint-label: remaining at 720 h (%)

compound="FC1(F)Oc2ccc(Nc3ccc4cccc(Cl)c4n3)cc2O1 [crystal form A]" readout_unit=% value=100
